- test description: Approximate solubilities of Form A in various solvents at ambient temperature
- Type: physicochemical
- test settings: ethyl acetate, organic solvent or mixture, thermodynamic from solid, approximate
measurement name: solubility (mg/mL)
Quick reminder: number only, in mg/mL, skip the unit.

Req: What value of solubility has been reported for the following molecule? CC(=O)c1cc(C)cc(C)c1NC(=O)c1sccc1S(=O)(=O)Nc1onc(C)c1C [Form A]
Resp: 21

----------
- test description: physchem
- test settings: 50 °C, organic solvent or mixture, thermodynamic from solid, AVERAGE SOLUBILITY
measurement name: solubility at 30 min (mg/mL)
Supply the numeric figure in mg/mL, leaving out any unit text.

Req: Suppose we examine the compound CC(=O)c1cc(C)cc(C)c1NC(=O)c1sccc1S(=O)(=O)Nc1onc(C)c1C [Form E] ; what solubility at 30 min value has been reported?
Resp: 40.8

----------
- test description: physchem
- test settings: 27 °C, organic solvent or mixture, thermodynamic from solid, AVERAGE SOLUBILITY
measurement name: solubility at 30 min (mg/mL)
Report the value in mg/mL with no unit label.

Req: Field request: solubility at 30 min | item: CC(=O)c1cc(C)cc(C)c1NC(=O)c1sccc1S(=O)(=O)Nc1onc(C)c1C [Form E]
Resp: 12.7

----------
- test description: Approximate solubilities of Form A in various solvents at ambient temperature
- Format: physicochemical
- test settings: propanol, organic solvent or mixture, thermodynamic from solid, approximate
measurement name: solubility

Req: Name the recorded solubility for CC(=O)c1cc(C)cc(C)c1NC(=O)c1sccc1S(=O)(=O)Nc1onc(C)c1C [Form A] .
Resp: < 9000 µg/mL

----------
- test description: Solubility of Forms A, C and E in ethanol (gravimetric)
- test settings: ethanol, 40 °C, organic solvent or mixture, thermodynamic from solid, AVERAGE SOLUBILITY, 30 min
measurement name: solubility at 30 min (mg/mL)
Your answer should be a plain number; it is taken to be in mg/mL.

Req: // returns reported solubility at 30 min for input CC(=O)c1cc(C)cc(C)c1NC(=O)c1sccc1S(=O)(=O)Nc1onc(C)c1C [Form C]
Resp: 28.3

----------
- test description: Approximate solubilities of Form A in various solvents at ambient temperature
- Type: physicochemical
- test settings: diethyl ether, organic solvent or mixture, thermodynamic from solid, approximate
measurement name: solubility

Req: // lookup solubility for CC(=O)c1cc(C)cc(C)c1NC(=O)c1sccc1S(=O)(=O)Nc1onc(C)c1C [Form A]
Resp: < 9000 µg/mL

Each recorded value in this set is attributed to patent US20080070961A1.
